hVEGF165 IC50 (nM), HMVEC-d proliferation reference
target: Human VEGF-A 165 (human, UniProt P15692 207-395); assay: cell-based or functional assay
Sequence (P15692 other isoform, or with tags, fused parts or gaps limits assumed): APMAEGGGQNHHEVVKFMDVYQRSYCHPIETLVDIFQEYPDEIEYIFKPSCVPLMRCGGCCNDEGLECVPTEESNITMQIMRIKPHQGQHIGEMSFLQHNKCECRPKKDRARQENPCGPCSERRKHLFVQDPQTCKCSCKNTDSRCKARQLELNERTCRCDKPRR
Numbers only; they are read as nM.

Past entries and their recorded results:
hBEW-9A8.17 (antibody, V domains shown) VH: EIQLVQSGSELKKPGASVKVSCKASGYTFTNYGMYWVKQAPGQGLEYMGWINTETGKPIYADDFKGRFVFSLDTSVSTAYLQISSLKAEDTAVYYCARVDYDGSFWFAYWGQGTLVTVSS VL: ETVLTQSPATLSLSPGERATLSCRASESVSTVIHWYQQKPGQQPRLLIHGASNLESGVPARFSGSGSGTDFTLTISSLEPEDFAVYFCQQHWNDPPTFGQGTKLEIK    0.059
hBEW-1E3.2 (antibody, V domains shown, Humanized IgG) VH: EIQLVQSGAEVKKPGASVKVSCKASGYPFTNSGMYWVKQAPGQGLEYMGWINTEAGKPTYADDFKGRFTFTLDTSTSTAYLEIRSLRSDDTAVYFCARWGYISDNSYGWFDYWGQGTLVTVSS VL: ETVLTQSPATLSLSPGERATLSCRASEGVYSYMHWYQQKPGQQPRLLIYKASNLASGVPARFSGSGSGTDFTLTISSLEPEDFAVYFCHQNWNDPLTFGQGTKLEIK    0.161

Task item: Name the recorded hVEGF165 IC50 (nM), HMVEC-d proliferation for hBEW-9E10.3 (antibody, V domains shown) VH: EVQLVQSGAEVKKPGSSVKVSCKASGYTFTNYGMYWVRQAPGQGLEWMGWIDTETGRPTYADDFKGRFTFTADKSTSTAYMELSSLRSEDTAVYYCARWSGDTTGIRGPWFAYWGQGTLVTVSS VL: DIRMTQSPSSLSASVGDRVTIECLASEDIYSDLAWYQQKPGKSPKLLIYNANGLQNGVPSRFSGSGSGTDYSLTISSLQPEDVATYFCQQYNYFPGTFGQGTKLEIK .
Reply: 0.062

Task item: # hVEGF165 IC50 (nM), HMVEC-d proliferation lookup, item hBEW-5C3.4 (antibody, V domains shown) VH: EIQLVQSGSELKKPGASVKVSCKASGYTFTNYGVYWVKQAPGQGLEYMGWINTETGKPTYADDFKGRFVFSLDTSVSTAYLQISSLKAEDTAVYYCARARQLDWFVYWGQGTLVTVSS VL: DTQLTQSPSSLSASVGDRVTISCRARESLTTSLSWFQQKPGKQPKLLIYGASKLESGVPSRFSGSGSGTDFTLTISSLQPEDFATYFCQQSWYDPPTFGGGTKVEIK
Reply: 0.098
